Where a SMILES comes first, the peptide text is derived from it.
Provide the recorded AC50 for the entries that follow.

Vasopressin V1a receptor (Homo sapiens) AC50 of "CN1C(=O)CN=C(c2ccccc2F)c2cc([N+](=O)[O-])ccc21" is > 10 µM

Vasopressin V1a receptor (Homo sapiens) AC50 of C[C@H](N)C(=O)N[C@@H](CCC(N)=O)C(=O)O [ALANYL GLUTAMINE] (H-Ala-Gln-OH) is > 30 µM

Vasopressin V1a receptor (Homo sapiens) AC50 of COc1ccc2c3c1O[C@H]1C(=O)CC[C@H]4[C@@H](C2)N(C)CC[C@]314 [HYDROCODONE] is > 10 µM

Vasopressin V1a receptor (Homo sapiens) AC50 of CC(=O)N1CCN(c2ccc(OCC3COC(Cn4ccnc4)(c4ccc(Cl)cc4Cl)O3)cc2)CC1 (configuration not stated) is > 10 µM

Vasopressin V1a receptor (Homo sapiens) AC50 of "COc1cccc2c1C(=O)c1c(O)c3c(c(O)c1C2=O)C[C@@](O)(C(=O)CO)C[C@@H]3O[C@H]1C[C@H](N)[C@H](O)[C@H](C)O1" is > 30 µM

Vasopressin V1a receptor (Homo sapiens) AC50 of "CN1CCCN=C1/C=C/c1cccc(O)c1" is > 30 µM

Vasopressin V1a receptor (Homo sapiens) AC50 of CC(C)NCC(O)COc1ccc(CC(N)=O)cc1 (configuration not stated) is > 30 µM

Vasopressin V1a receptor (Homo sapiens) AC50 of "CC(C)(CO)c1cc2cc(NC(=O)C3(c4ccc5c(c4)OC(F)(F)O5)CC3)c(F)cc2n1C[C@@H](O)CO" is > 30 µM

Vasopressin V1a receptor (Homo sapiens) AC50 of "CN(C)CCN(Cc1ccccc1)c1ccccn1" is > 10 µM

Vasopressin V1a receptor (Homo sapiens) AC50 of "CCN(CC)CCn1c(=O)c(Cc2ccc(OC)cc2)nc2ccccc21" is > 30 µM

Vasopressin V1a receptor (Homo sapiens) AC50 of "C[C@]12CCC(=O)C=C1CC[C@H]1[C@@H]3CC[C@](O)(C(=O)CO)[C@@]3(C)C[C@H](O)[C@@]12F" is > 30 µM

Vasopressin V1a receptor (Homo sapiens) AC50 of OCC(O)COc1ccc(Cl)cc1 (configuration not stated) is > 10 µM

====

ASSAY METRIC: AC50

Histamine H1 receptor (Homo sapiens, UniProt P35367) AC50 of "Oc1cc(Cl)ccc1Oc1ccc(Cl)cc1Cl" is > 30 µM

Histamine H1 receptor (Homo sapiens, UniProt P35367) AC50 of "CC(=O)OCC1=C(C(=O)O)N2C(=O)[C@@H](NC(=O)Cc3cccs3)[C@H]2SC1" is > 30 µM

Histamine H1 receptor (Homo sapiens, UniProt P35367) AC50 of "CC(C)(N)Cc1ccccc1" is > 10 µM

Histamine H1 receptor (Homo sapiens, UniProt P35367) AC50 of "O=C(O)CCCC[C@@H]1SC[C@@H]2NC(=O)N[C@@H]21" is > 10 µM

Histamine H1 receptor (Homo sapiens, UniProt P35367) AC50 of "Cc1cnc(Nc2ccc(OCCN3CCCC3)cc2)nc1Nc1cccc(S(=O)(=O)NC(C)(C)C)c1" is > 10 µM

Histamine H1 receptor (Homo sapiens, UniProt P35367) AC50 of "COc1ccc(C(=O)c2ccccc2)c(O)c1" is 17 µM

Histamine H1 receptor (Homo sapiens, UniProt P35367) AC50 of "NS(=O)(=O)c1ccc(N2CCCCS2(=O)=O)cc1" is > 30 µM

Histamine H1 receptor (Homo sapiens, UniProt P35367) AC50 of CCC(=O)O[C@H](CC(=O)O)C[N+](C)(C)C [LEVOCARNITINE PROPIONATE] is > 30 µM

Histamine H1 receptor (Homo sapiens, UniProt P35367) AC50 of "CC1=C(C(=O)O)N2C(=O)[C@@H](NC(=O)[C@H](N)C3=CCC=CC3)[C@H]2SC1" is > 30 µM

Histamine H1 receptor (Homo sapiens, UniProt P35367) AC50 of O=C(C[S+]([O-])Cc1ccco1)NC/C=C\COc1cc(CN2CCCCC2)ccn1 (stereo not drawn) is > 10 µM

Histamine H1 receptor (Homo sapiens, UniProt P35367) AC50 of "C=CC1=C(C(=O)O)N2C(=O)[C@@H](NC(=O)/C(=N\O)c3csc(N)n3)[C@H]2SC1" is > 10 µM

Histamine H1 receptor (Homo sapiens, UniProt P35367) AC50 of C[C@@H](O)[C@H]1C(=O)N2C(C(=O)O)=C(SCCN=CN)C[C@H]12 [IMIPENEM ANHYDROUS] is > 300 µM

Histamine H1 receptor (Homo sapiens, UniProt P35367) AC50 of CCC(=O)c1ccc2c(c1)N(CC(C)N(C)C)c1ccccc1S2 (stereo not drawn) is 0.034 µM

Histamine H1 receptor (Homo sapiens, UniProt P35367) AC50 of "Cc1cn(-c2cc(NC(=O)c3ccc(C)c(Nc4nccc(-c5cnccn5)n4)c3)cc(C(F)(F)F)c2)cn1" is > 30 µM

Histamine H1 receptor (Homo sapiens, UniProt P35367) AC50 of "O=C(O)c1nn(Cc2ccc(Cl)cc2Cl)c2ccccc12" is > 30 µM

Histamine H1 receptor (Homo sapiens, UniProt P35367) AC50 of "OCC(CO)N[C@H]1C[C@](O)(CO)[C@@H](O)[C@H](O)[C@H]1O" is > 30 µM

Histamine H1 receptor (Homo sapiens, UniProt P35367) AC50 of "CN(C)CCc1c[nH]c2ccc(CS(=O)(=O)N3CCCC3)cc12" is > 30 µM

Histamine H1 receptor (Homo sapiens, UniProt P35367) AC50 of "CO/N=C(\C(=O)N[C@@H]1C(=O)N2C(C(=O)O)=C(CSc3nc(C)c(CC(=O)O)s3)CS[C@H]12)c1csc(N)n1" is > 30 µM

====

# EXPERIMENTAL SYSTEM: UniProt P41595
# Sequence (P41595 whole entry): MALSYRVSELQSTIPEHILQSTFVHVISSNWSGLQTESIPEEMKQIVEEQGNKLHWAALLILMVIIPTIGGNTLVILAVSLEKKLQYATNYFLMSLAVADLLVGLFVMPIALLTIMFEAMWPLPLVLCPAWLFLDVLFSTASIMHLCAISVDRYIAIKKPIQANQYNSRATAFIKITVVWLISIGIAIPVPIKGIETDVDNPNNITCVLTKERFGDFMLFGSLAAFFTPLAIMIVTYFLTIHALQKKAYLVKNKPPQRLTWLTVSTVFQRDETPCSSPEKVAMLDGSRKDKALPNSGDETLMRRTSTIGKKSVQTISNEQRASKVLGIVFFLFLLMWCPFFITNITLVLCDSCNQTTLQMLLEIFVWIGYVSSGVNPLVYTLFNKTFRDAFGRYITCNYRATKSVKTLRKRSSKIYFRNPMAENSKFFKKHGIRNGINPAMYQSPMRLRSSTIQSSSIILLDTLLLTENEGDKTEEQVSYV
# Type: functional, cell-based
Provide the recorded AC50 for the entries that follow.

Looking up Cc1ccc(Cl)c(Nc2ccccc2C(=O)O)c1Cl [MECLOFENAMIC ACID] , I found its AC50 recorded as > 30 µM

Looking up O=c1[nH]c2ccccc2n1CCN1CCN(c2cccc(C(F)(F)F)c2)CC1 [FLIBANSERIN] , I found its AC50 recorded as > 30 µM

Looking up CC#CC(=O)N1CCC[C@H]1c1nc(-c2ccc(C(=O)Nc3ccccn3)cc2)c2c(N)nccn12 [ACALABRUTINIB] , I found its AC50 recorded as > 30 µM

Looking up OC(CN1CCCCC1)c1cc(-c2ccccc2)on1 (centres undefined) [PERISOXAL] , I found its AC50 recorded as > 30 µM

Looking up Cc1ncc(CO)c(CO)c1O [PYRIDOXINE] , I found its AC50 recorded as > 30 µM

Looking up CN1CCCC(CC2c3ccccc3Sc3ccccc32)C1 (centres undefined) [METHIXENE] , I found its AC50 recorded as > 30 µM

Looking up NC(=O)C1(N2CCCCC2)CCN(CCCN2c3ccccc3CCc3ccccc32)CC1 [CARPIPRAMINE] , I found its AC50 recorded as > 30 µM

Looking up C[C@H](Nc1ncnc2[nH]cnc12)c1cc2cccc(Cl)c2c(=O)n1-c1ccccc1 [DUVELISIB] , I found its AC50 recorded as > 30 µM

Looking up O=NN(CCCl)C(=O)NC1CCCCC1 [LOMUSTINE] , I found its AC50 recorded as > 30 µM

====

ASSAY METRIC: AC50

Androgen receptor (Rattus norvegicus) AC50 of CCC(=O)c1ccc2c(c1)N(CC(C)N(C)C)c1ccccc1S2 (stereo not drawn) is > 30 µM

Androgen receptor (Rattus norvegicus) AC50 of "Nc1cc(N2CCCCC2)nc(N)[n+]1[O-]" is > 30 µM

Androgen receptor (Rattus norvegicus) AC50 of "CN(C)[C@@H]1C(O)=C(C(=O)NCN2CCCC2)C(=O)[C@@]2(O)C(O)=C3C(=O)c4c(O)cccc4[C@@](C)(O)[C@H]3C[C@@H]12" is 4.35 µM

Androgen receptor (Rattus norvegicus) AC50 of "CC(C)CN(C[C@@H](O)[C@H](Cc1ccccc1)NC(=O)O[C@H]1CCOC1)S(=O)(=O)c1ccc(N)cc1" is > 10 µM

Androgen receptor (Rattus norvegicus) AC50 of C[C@H](Cn1cnc2c(N)ncnc21)OCP(=O)(O)O [TENOFOVIR ANHYDROUS] is > 30 µM

Androgen receptor (Rattus norvegicus) AC50 of "O=C(O)COC(=O)Cc1ccccc1Nc1c(Cl)cccc1Cl" is > 30 µM

Androgen receptor (Rattus norvegicus) AC50 of "OCC(CO)N[C@H]1C[C@](O)(CO)[C@@H](O)[C@H](O)[C@H]1O" is > 30 µM

Androgen receptor (Rattus norvegicus) AC50 of "C=C(c1ccccc1OCc1cccc(Cl)c1)n1ccnc1" is > 30 µM

Androgen receptor (Rattus norvegicus) AC50 of Cc1c(C)c2c(c(C)c1O)CCC(C)(COc1ccc(CC3SC(=O)NC3=O)cc1)O2 (stereo not drawn) is 3.57 µM

Androgen receptor (Rattus norvegicus) AC50 of CCOC(=O)O[C@]1(C(=O)COC(=O)CC)CC[C@H]2[C@@H]3CCC4=CC(=O)C=C[C@]4(C)[C@H]3[C@@H](O)C[C@@]21C [PREDNICARBATE] is 0.71 µM

Androgen receptor (Rattus norvegicus) AC50 of "OCCN(CCO)c1nc(N2CCCCC2)c2nc(N(CCO)CCO)nc(N3CCCCC3)c2n1" is > 30 µM

Androgen receptor (Rattus norvegicus) AC50 of CCN(CC)C(C)C(=O)c1ccccc1 (stereo not drawn) is > 30 µM

Androgen receptor (Rattus norvegicus) AC50 of CC(C(=O)O)c1ccc(C(=O)c2ccccc2)s1 (stereo not drawn) is > 10 µM

Androgen receptor (Rattus norvegicus) AC50 of "C[C@H](CS)C(=O)N1CCC[C@H]1C(=O)O" is > 30 µM

Androgen receptor (Rattus norvegicus) AC50 of Clc1ccc(COC(Cn2ccnc2)c2ccc(Cl)cc2Cl)c(Cl)c1 (stereo not drawn) is 0.703 µM

Androgen receptor (Rattus norvegicus) AC50 of "CC(=O)Oc1ccccc1C(=O)O" is > 30 µM

Androgen receptor (Rattus norvegicus) AC50 of "Cc1cnc(Nc2ccc(OCCN3CCCC3)cc2)nc1Nc1cccc(S(=O)(=O)NC(C)(C)C)c1" is > 30 µM

Androgen receptor (Rattus norvegicus) AC50 of "C=CC1=C(C(=O)O)N2C(=O)[C@@H](NC(=O)/C(=N\O)c3csc(N)n3)[C@H]2SC1" is > 30 µM

Data origin: ChEMBL document CHEMBL5291721
